Molecular target: purified catalytic domain of recombinant human TACE (rhTACEc) (Homo sapiens, UniProt P78536, N452Q/S266A)
Construct: rhTACEc, Residue 215 to 477 with two mutation (S266A and N452Q) and a 6xHis tail; 6xHis (C); made in house; host or cells: baculovirus/Hi5 insect cells
Sequence (P78536 215-477 S266A/N452Q): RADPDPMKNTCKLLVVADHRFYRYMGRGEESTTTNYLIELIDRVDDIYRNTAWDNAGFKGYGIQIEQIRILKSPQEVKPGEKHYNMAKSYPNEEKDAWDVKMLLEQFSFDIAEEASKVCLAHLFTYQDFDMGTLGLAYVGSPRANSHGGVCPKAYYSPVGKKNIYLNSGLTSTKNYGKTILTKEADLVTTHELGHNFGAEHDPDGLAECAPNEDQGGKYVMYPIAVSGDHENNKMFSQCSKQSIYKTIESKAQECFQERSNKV
Test: TACE kinetic assay, cleavage of internally quenched fluorescent peptide substrate SPDL-3
Format: biochemical
Conditions: TACE inhibition, Table 1; read-out: Ki Rating
measure: Ki

Previously resolved entries follow.
COc1ccc2c(c1)C(=O)N(C[C@]1(c3ccc(C#Cc4cccnc4)cc3)NC(=O)NC1=O)C2	10 to 100 nM
COc1ccc2c(c1)C(=O)N(C[C@@]1(c3ccc(-c4ccccc4C(N)=O)cc3)NC(=O)NC1=O)C2	< 10 nM
COc1ccc2c(c1)C(=O)N(C[C@@]1(c3ccc(-c4cnc(N)c(C(N)=O)c4)cc3)NC(=O)NC1=O)C2	< 10 nM
O=C1NC(=O)C(CN2Cc3ncccc3C2=O)(c2ccc(F)cc2)N1 (stereo not drawn)	> 1000 nM
COc1ccc2c(c1)C(=O)N(CC1(CC(=O)O)NC(=O)NC1=O)C2 (stereo not drawn)	100 to 1000 nM
CNC(=O)c1cccnc1-c1ccc([C@]2(CN3Cc4ccc(OC)cc4C3=O)NC(=O)NC2=O)cc1	< 10 nM
COC(=O)c1cnc(-c2ccc([C@]3(CN4Cc5ccc(OC)cc5C4=O)NC(=O)NC3=O)cc2)cn1	< 10 nM
CCNC(=O)c1cnc(-c2ccc([C@]3(CN4Cc5ccc(OC)cc5C4=O)NC(=O)NC3=O)cc2)cn1	< 10 nM
COC(=O)c1cccnc1-c1ccc([C@]2(CN3Cc4ccc(OC)cc4C3=O)NC(=O)NC2=O)cc1	< 10 nM
COc1ccc2c(c1)C(=O)N(CC1(CC(=O)N3Cc4ccccc4C3)NC(=O)NC1=O)C2 (stereo not drawn)	10 to 100 nM

Q: Which Ki is reported for this compound? COc1ccc2c(c1)C(=O)N(CC1(CC(=O)N3CCc4ccccc4C3C3CC3)NC(=O)NC1=O)C2 (stereo not drawn)
Ans: < 10 nM

Q: For the compound COc1ccc2c(c1)C(=O)N(C[C@@]1(c3cc4cc(S(C)(=O)=O)ccc4o3)NC(=O)NC1=O)C2 , what Ki is on record?
Ans: < 10 nM

###

Entries and their Ki values follow.
Target: purified catalytic domain of recombinant human TACE (rhTACEc) (Homo sapiens, UniProt P78536, N452Q/S266A)
Construct: rhTACEc, Residue 215 to 477 with two mutation (S266A and N452Q) and a 6xHis tail; 6xHis (C); made in house; host or cells: baculovirus/Hi5 insect cells
Experiment: TACE kinetic assay, cleavage of internally quenched fluorescent peptide substrate SPDL-3
Type: biochemical
Details: TACE inhibition, Table 1; read-out: Ki Rating

Q: # get_value(readout='Ki', item= CCN(CC)C(=O)CC1(CN2Cc3ccc(OC)cc3C2=O)NC(=O)NC1=O (centres unmarked) )
Ans: 10 to 100 nM

Q: Requested field: Ki. Item: COc1ccc2c(c1)C(=O)N(C[C@@]1(c3cc4cc(C(=O)O)cnc4o3)NC(=O)NC1=O)C2
Ans: < 10 nM

Q: Recorded Ki of COc1ccc2c(c1)C(=O)N(CC1(CC(=O)NC3CCCCC3)NC(=O)NC1=O)C2 (centres unmarked) , please.
Ans: 10 to 100 nM

Q: Request the reported Ki associated with COC(=O)c1ccnc(-c2ccc([C@]3(CN4Cc5ccc(OC)cc5C4=O)NC(=O)NC3=O)cc2)c1
Ans: < 10 nM

Q: Sample COc1ccc2c(c1)C(=O)N(CC1(CC(=O)N3CCN(C)CC3)NC(=O)NC1=O)C2 (centres unmarked) — what was its Ki?
Ans: 10 to 100 nM

Q: I'd like to know its Ki. The molecule in question is COc1ccc2c(c1)C(=O)N(CC1(CC(=O)N3CCCC3)NC(=O)NC1=O)C2 (centres unmarked)
Ans: < 10 nM

Q: // returns reported Ki for input COc1ccc2c(c1)C(=O)N(C[C@@]1(c3ccc(OCC#CCO)cc3)NC(=O)NC1=O)C2
Ans: < 10 nM

Q: Please give the measured Ki for this molecule: COC(=O)c1ccnc(-c2ccc(C3(CN4Cc5ccc(OC)cc5C4=O)NC(=O)NC3=O)cc2)c1 (centres unmarked)
Ans: < 10 nM
